- SYSTEM_TESTED: T1, recombinant gp120 of HIV-1 strain IIIb (HIV-1 strain IIIb, UniProt P04578 33-511)
- T1 construct: domain: gp120; also called IIIb-derived gp120; gp 120 (IIIB strain)
- ASSAY_COMMENT: SPR BIAcore, gp120 on chip (summary table)
Parameter: log10 of Kd. Scope: all listed entries.
Answers are given as log10 of Kd in nM.

Guide cases for log10 of Kd, answers given:
composite Fab H33/LH-11 (Fab, V domains shown) VH: LEQSGAEVKKPGASVKVSCQASGYRFSHFTLHWVRQAPGQRFEWHGWINPYNGNKEFSAKFQDRVTFTADTSANTAYMELRSLRSADTAVYYCARVGEWGWEMFRYDNYYMDVWGKGTTVIVSS VL: ELTQSPGTLSLSPGERATFSCRSSHQLDGSRVAWYQHKPGQAPRLVIHGVSNRASGISDRFSGSGSGTDFTLTITRVEPEDFALYYCQTYGRGHYTFGQGTKLERKR = -1.13
Fab QA4 (Fab, V domains shown) VH: LEQSGAEVKKPGASVKVSCQASGYRFSNFTVHWVRQAPGQRFEWMGWINPYNGNKEFSAKFQDRVTFTADTSANTAYMELRSLRSADTAVYYCARVGEWGWDDSPQDNYYMDVWGKGTTVIVSS VL: ELTQSPGTLSLSPGERATFSCRSSHQLDGSRVAWYQHKPGQAPRLVIHGVSNRASGISDRFSGSGSGTDFTLTITRVEPEDFALYYCQSYGGRDYTFGQGTKLERKR = -0.30
Fab M556-2 (Fab, V domains shown) VH: LEQSGAEVKKPGASVKVSCQASGYRFSNFTVHWVRQAPGQRFEWMGWINPYNGNKEFSAKFQDRVTFTADTSANTAYMELRSLRSADTAVYYCARVGEWGWEQFRFDNYYMDVWGKGTTVIVSS VL: ELTQSPGTLSLSPGERATFSCRSSHSIRSRRVAWYQHKPGQAPRLVIHGVSNRASGISDRFSGSGSGTDFTLTITRVEPEDFALYYCQVYGASSYTFGQGTKLERKR = -0.36
Fab M556-7 (Fab, V domains shown) VH: LEQSGAEVKKPGASVKVSCQASGYRFSNFTVHWVRQAPGQRFEWMGWINPYNGNKEFSAKFQDRVTFTADTSANTAYMELRSLRSADTAVYYCARVGEWGWEMRRFDNYYMDVWGKGTTVIVSS VL: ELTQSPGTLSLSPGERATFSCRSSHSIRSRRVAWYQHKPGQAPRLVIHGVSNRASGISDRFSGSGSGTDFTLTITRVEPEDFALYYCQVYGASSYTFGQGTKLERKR = -0.89

# query: log10 of Kd of entry Fab QA10 (Fab, V domains shown) VH: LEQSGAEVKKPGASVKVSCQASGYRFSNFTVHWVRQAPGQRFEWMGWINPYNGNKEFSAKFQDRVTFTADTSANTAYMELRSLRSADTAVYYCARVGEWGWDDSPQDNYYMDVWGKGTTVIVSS VL: ELTQSPGTLSLSPGERATFSCRSSHQLDGSRVAWYQHKPGQAPRLVIHGVSNRASGISDRFSGSGSGTDFTLTITRVEPEDFALYYCQTYGRGSYTFGQGTKLERKR
-1.13

For the binder shown here, composite Fab H103/L42-4 (Fab, V domains shown) VH: LEQSGAEVKKPGASVKVSCQASGYRFSHFTLHWVRQAPGQRFEWHGWINPYNGNKEFSAKFQDRVTFTADTSANTAYMELRSLRSADTAVYYCARVGEWGWHQRRYDNYYMDVWGKGTTVIVSS VL: ELTQSPGTLSLSPGERATFSCRSSHQLDGSRVAWYQHKPGQAPRLVIHGVSNRASGISDRFSGSGSGTDFTLTITRVEPEDFALYYCQQYGWPFYTFGQGTKLERKR , give the reported log10 of Kd.
-0.95

// lookup log10 of Kd for Fab H4L3-4 (Fab, V domains shown) VH: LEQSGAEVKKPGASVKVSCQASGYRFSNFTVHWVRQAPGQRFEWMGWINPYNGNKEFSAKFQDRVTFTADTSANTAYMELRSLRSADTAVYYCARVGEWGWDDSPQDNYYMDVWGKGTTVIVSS VL: ELTQSPGTLSLSPGERATFSCRSSHSIRSRRVAWYQHKPGQAPRLVIHGVSNRASGISDRFSGSGSGTDFTLTITRVEPEDFALYYCQKYGGGTYTFGQGTKLERKR
-0.61

Endpoint output: log10 of Kd of Fab M556-10 (Fab, V domains shown) VH: LEQSGAEVKKPGASVKVSCQASGYRFSNFTVHWVRQAPGQRFEWMGWINPYNGNKEFSAKFQDRVTFTADTSANTAYMELRSLRSADTAVYYCARVGEWGWHQRRYDNYYMDVWGKGTTVIVSS VL: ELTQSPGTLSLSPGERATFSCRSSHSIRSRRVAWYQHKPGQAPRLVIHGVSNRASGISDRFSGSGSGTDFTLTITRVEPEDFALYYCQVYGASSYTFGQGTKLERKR . Value?
-0.04

So what's the measured log10 of Kd for this one? composite Fab H31/4L-14 (Fab, V domains shown) VH: LEQSGAEVKKPGASVKVSCQASGYRFSHFTVHWVRQAPGQRFEWHGWINPYNGNKEFSAKFQDRVTFTADTSANTAYMELRSLRSADTAVYYCARVGEWGWEMFRYDNYYMDVWGKGTTVIVSS VL: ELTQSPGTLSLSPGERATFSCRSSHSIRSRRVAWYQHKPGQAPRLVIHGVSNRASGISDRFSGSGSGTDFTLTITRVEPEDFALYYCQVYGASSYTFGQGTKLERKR
-1.66

Any idea what its log10 of Kd is? The binder is Fab H4L3-2 (Fab, V domains shown) VH: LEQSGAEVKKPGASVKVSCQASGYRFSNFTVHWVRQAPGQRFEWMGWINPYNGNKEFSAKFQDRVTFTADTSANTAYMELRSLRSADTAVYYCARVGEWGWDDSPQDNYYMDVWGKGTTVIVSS VL: ELTQSPGTLSLSPGERATFSCRSSHSIRSRRVAWYQHKPGQAPRLVIHGVSNRASGISDRFSGSGSGTDFTLTITRVEPEDFALYYCQQYGWPFYTFGQGTKLERKR
-0.86

Data origin, for the record: patent US6395275
